- System: SF-268 CNS
- PROTOCOL_NOTES: NCI tumour cell line growth inhibition, 48 h
The following molecules are shown together with reported TGI values.

molecule=NC(N)=NS(=O)(=O)c1ccc(NC(=O)c2cccc3c(NNc4ccc(C(=O)O)cc4)c4ccccc4nc23)cc1 data_value="> 100 µM"
molecule="Nc1nc2c(c3cnccc13)C(c1cccc(Br)c1)Cc1cnccc1-2 (centres undefined)" data_value="18.3 µM"
molecule="O=C(C(=NC12CC3CC(CC(C3)C1)C2)NNc1ccc([N+](=O)[O-])cc1[N+](=O)[O-])C(Br)C(=O)c1ccccc1 (centres undefined)" data_value="> 10 µM"

I have this molecule here, `S=C(Nc1c2c(nc3ccccc13)CCCC2)Nc1c2c(nc3ccccc13)CCCC2` , and I need its recorded TGI. > 100 µM

Can you check `O=C1/C(=C/c2cccc(O)c2)COc2ccccc21` next? 40.8 µM

Here is the next molecule: `OC(Cc1cccnc1)(c1ccccc1)c1ccccc1` > 100 µM

Also Cc1ccc(S(=O)(=O)NC(CCC(=O)NN)C(=O)NN)cc1 (centres undefined) , if possible. > 100 µM

The origin of these recorded values is PubChem BioAssay (NCI).
